# Test system: established adjuvant-induced arthritis in rats
# Test Method Notes: Established adjuvant-induced arthritis in rats (therapeutic, paw volume)
# Assay type: in vivo, Charles River Lewis male rats
# Test Parameters: 50 mg./kg., oral
# percent (%) reduction in paw volume measured at the indicated dose per record follows
Value Kind: percent (%) reduction in paw volume measured at the indicated dose

>>> print(df.to_string())
                                   compound  unit_abbreviation  result
0  CCOc1ccc(-c2[nH]c(SC)nc2-c2ccccc2)cc1 [Example 115]                  %      33
1  CCOc1ccc(-c2[nH]c(S(C)(=O)=O)nc2-c2ccccc2)cc1 [Example 138]                  %      41
2  CS(=O)(=O)c1nc(-c2ccccc2)c(-c2ccc(Cl)c(Cl)c2)[nH]1 [Example 145]                  %      59
3  CSc1nc(-c2ccccc2)c(-c2cccc(Cl)c2)[nH]1 [Example 114]                  %      45
4  CCCCS(=O)(=O)c1nc(-c2ccc(OC)cc2)c(-c2ccc(OC)cc2)[nH]1 [Example 129]                  %      71
